Tested on: HCT-116
method notes: Anticancer activity against human HCT-116 cells by MTT assay
Assay type: functional, cell-based
assay readout: IC50

Query string: Write down IC50 measured for item CN1C[C@H](c2ccc(Cl)cc2Cl)[C@@H](C(=O)c2cc3ccccc3[nH]2)C12C(=O)Nc1ccccc12 (stereo partly specified)
Result string: < 1000 nM

* * *

Test system: Geotrichum candidum
method notes: Antifungal activity against Geotrichum candidum RCMB 05097 assessed as zone of inhibition; also: test concentration or dose not given here
Type: functional
assay readout: diameter of the inhibition zone (DIZ) (mm)
A number alone suffices; assume mm.

Solved cases below.
Cc1ccc([C@H]2[C@@]3(SC(=S)NC3=O)C3CCCN3[C@@]23C(=O)Nc2ccccc23)cc1 (some centres undefined) : 27
OC(Cn1cncn1)(Cn1cncn1)c1ccc(F)cc1F [FLUCONAZOLE] : 30
C[C@@H]1[C@H](O)[C@@H](C)/C=C/C=C/C=C/C=C/C=C/C=C/C=C/[C@H](O[C@@H]2O[C@H](C)[C@@H](O)[C@H](N)[C@@H]2O)C[C@@H]2O[C@](O)(C[C@@H](O)C[C@@H](O)[C@H](O)CC[C@@H](O)C[C@@H](O)CC(=O)O[C@H]1C)C[C@H](O)[C@H]2C(=O)O [AMPHOTERICIN B] : 29

Kindly review the next molecule as well.
Query string: Quick one: give measured diameter of the inhibition zone (DIZ) for O=C1NC(=S)S[C@]12C1CCCN1[C@@]1(C(=O)Nc3ccccc31)[C@H]2c1ccccc1 (some centres undefined)
Result string: 24

* * *

Tested on: MCF7
method notes: Antiproliferative activity against human MCF7 cells by MTT reduction assay
Assay type: functional, cell-based
// reported IC50 for each item listed
Give just the number in µM; leave the unit off.

Query string: Determine from records and report IC50 for Cc1cc2c(cc1C)C(Cl)=C(C1C3CCCN3C3(C(=O)Nc4ccc(I)cc43)C1C(=O)c1ccccc1)CCC2 (stereo unspecified)
Result string: 8.3

Query string: Given the molecule O=C(c1ccc(OCCN2CCCC2)cc1)[C@H]1[C@H](c2ccccc2)C2CS[C@H](c3ccccc3)N2C12C(=O)Nc1ccc(F)cc12 (stereo partly specified) , write its reported IC50.
Result string: 5.4

Query string: State its IC50 for this molecule: Cc1cc2c(cc1C)C(Cl)=C(C1C3CCCN3C3(C(=O)Nc4ccc([N+](=O)[O-])cc43)C1C(=O)c1ccccc1)CCC2 (stereo unspecified)
Result string: 7.3

Query string: Could you please provide reported IC50 for O=C(c1ccc(OCCN2CCC2)cc1)[C@H]1[C@H](c2ccccc2)C2CS[C@H](c3ccccc3)N2C12C(=O)Nc1ccc(Cl)cc12 (stereo partly specified) ? Thanks!
Result string: 3.7

Query string: Name the recorded IC50 of the molecule listed here: "O=C1Nc2ccccc2[C@]12N1CSC[C@H]1[C@H](c1ccc(Br)cc1)[C@]21CCC/C(=C\c2ccc(Br)cc2)C1=O"
Result string: 15.3

Query string: Look up IC50 of "O=c1[nH]cc(F)c(=O)[nH]1" and report it.
Result string: 78.3

* * *

Tested on: A549
method notes: Anticancer activity against human A549 cells by MTT assay
Type: functional, cell-based
assay readout: IC50 (µM)
Just the number in µM, nothing appended.

Sample answers from the record:
CC(C)=CC(=O)[C@H]1[C@H](c2ccc(Br)cc2)CN(C)[C@]12C(=O)Nc1ccc(Br)cc12 : 22.9
CC(C)=CC(=O)[C@H]1[C@H](c2ccc(F)cc2)CN(C)[C@]12C(=O)N(C)c1ccccc12 : 19.1
C#CCN1C(=O)[C@]2(c3ccccc31)N(C)C[C@@](C#N)(C(=O)c1c[nH]c3ccccc13)[C@@]21C(=O)Nc2ccccc21 : 50

Query string: Tell me IC50 reported for "CC(C)=CC(=O)[C@H]1[C@H](c2ccc(Br)cc2)CN(C)[C@]12C(=O)Nc1ccc(C)cc12"
Result string: 21.1
